The values you see were collected from the supplement of paper PMC9732359.

# ASSAY TEXT: protein stability index of a GFP-peptide fusion (yeast GPS) (PSI 1-4); higher = more stable; sorted into four equal gates, so the index is relative within each strain
# PARTICULARS: pdr5∆
Answer no (0) if protein stability index is under 3, and yes (1) if it is 3 or more.

PRIMARY SEQUENCE: QQQQQHQQQQQQQQQQQ [SNF5]
DISCRETE LABEL: no (0)
//
PRIMARY SEQUENCE: LTKTTVNISAVDNTTEQ [YCG1]
DISCRETE LABEL: yes (1)
//
PRIMARY SEQUENCE: PLELSAPIGKHYVVLDT [DIS3]
DISCRETE LABEL: no (0)
//
PRIMARY SEQUENCE: ITHPGKMELVYVSDSDD [SIR4]
DISCRETE LABEL: yes (1)
//
PRIMARY SEQUENCE: VFALHKYKPTPLYVMDE [SMC4]
DISCRETE LABEL: no (0)
//
PRIMARY SEQUENCE: QLKIQNRQAAASVVPSA [RPL12A]
DISCRETE LABEL: no (0)
//
PRIMARY SEQUENCE: ILQNEHDYWNKIMQSIS [SRB4]
DISCRETE LABEL: no (0)
//
PRIMARY SEQUENCE: THLEIEPFTILGAVAGL [RET1]
DISCRETE LABEL: no (0)
//
PRIMARY SEQUENCE: SPFLMGHPMTKSVYETP [SEC65]
DISCRETE LABEL: no (0)
//
PRIMARY SEQUENCE: EANFDLINIDTSIANAF [RPC40]
DISCRETE LABEL: yes (1)
//
PRIMARY SEQUENCE: NTLLQQQNYSKVLLPSI [SWI1]
DISCRETE LABEL: no (0)
//
PRIMARY SEQUENCE: MAGLMHFKKPDITVHGE [RRP45]
DISCRETE LABEL: no (0)
//
PRIMARY SEQUENCE: ETALEFLEKEKQLTLLR [SMC4]
DISCRETE LABEL: no (0)
//
PRIMARY SEQUENCE: EEQEEEPDREKIKLLTQ [RPC19]
DISCRETE LABEL: yes (1)
//
PRIMARY SEQUENCE: KLITTYISLLKLQGLYE [YDL116W/NUP84]
DISCRETE LABEL: no (0)
//
PRIMARY SEQUENCE: EIKKLLATNSLVEEFML [DIS3]
DISCRETE LABEL: no (0)
//
PRIMARY SEQUENCE: VEITFGKEFGDVSVKMG [RRP45]
DISCRETE LABEL: no (0)
//
PRIMARY SEQUENCE: RPSFQNNRISNANEISA [SWP82]
DISCRETE LABEL: no (0)
//
PRIMARY SEQUENCE: PYTGWVDSKTKEPVDDK [FAS2]
DISCRETE LABEL: yes (1)
//
PRIMARY SEQUENCE: FHSEPDRDENWIHVSCL [LIN1]
DISCRETE LABEL: yes (1)
//
PRIMARY SEQUENCE: APSGIRMHLAPASKQGY [SSN2]
DISCRETE LABEL: no (0)
//
PRIMARY SEQUENCE: IFIRQLKENEENEDGNI [BRR2]
DISCRETE LABEL: yes (1)
//
PRIMARY SEQUENCE: DEGHVLKLENLHVVSKS [SIN4]
DISCRETE LABEL: no (0)
//
PRIMARY SEQUENCE: LKENNAILQKSLKNVTE [YIL149C/MLP2]
DISCRETE LABEL: no (0)
//
PRIMARY SEQUENCE: DSNESDDDVTPSTKVAS [YLR335W/NUP2]
DISCRETE LABEL: yes (1)
//
PRIMARY SEQUENCE: MSREGFQIPTNLDAAAA [RPC10]
DISCRETE LABEL: no (0)
//
PRIMARY SEQUENCE: KKVSRRNARATRAAKIA [RPL13A]
DISCRETE LABEL: no (0)
//
PRIMARY SEQUENCE: CDDESGDNEYITLRTSG [MCD1]
DISCRETE LABEL: yes (1)
//
PRIMARY SEQUENCE: IKDLQRAINKVLCTRLR [SIR2]
DISCRETE LABEL: no (0)
//
PRIMARY SEQUENCE: AFRRIMISEVPSVAAEY [RPC40]
DISCRETE LABEL: no (0)
//
PRIMARY SEQUENCE: GRRWNELRRFESSINTH [SKI6]
DISCRETE LABEL: no (0)
//
PRIMARY SEQUENCE: ISTYISTDELVGSPLTV [POP8]
DISCRETE LABEL: no (0)
//
PRIMARY SEQUENCE: MVDESDKKQQTIDEQSQ [RPN1]
DISCRETE LABEL: yes (1)
//
PRIMARY SEQUENCE: DQGNGWLYVYETPNQDA [RPN6]
DISCRETE LABEL: no (0)
//
PRIMARY SEQUENCE: REPDFWVIRKQRRTNNS [MED6]
DISCRETE LABEL: yes (1)
//
PRIMARY SEQUENCE: PKKEYDDDAVRREVQIQ [NSL1]
DISCRETE LABEL: no (0)
//
PRIMARY SEQUENCE: LIRFDESITKAMEFIFG [SMC2]
DISCRETE LABEL: no (0)
//
PRIMARY SEQUENCE: NGNTSSKTVVTLSEPVQ [FAS1]
DISCRETE LABEL: yes (1)
//
PRIMARY SEQUENCE: RATPATLTELKDALSNS [SRB2]
DISCRETE LABEL: yes (1)
